Assay: Stability of cannabinoid compounds and Vitamin E components in Beverage 1 (AB White) by LCMSMS
Assay type: physicochemical
Settings: AB White stored at 8° C.; 26 days
Below is a list of entries, each paired with its recorded Stability of Plant-Derived Cannabinoid Compounds in AB White, 8° C. value.
Numbers only; they are read as µg/mL.

Below are worked cases with known answers.
compound	unit-of-measure	measured-result
CCCCCc1cc(O)c2c(c1)OC(C)(CCC=C(C)C)C=C2 (stereo not shown) [CBC, cannabichromene]	µg/mL	0.316
CCCCCc1cc(O)c2c(c1)OC(C)(C)c1ccc(C)cc1-2 [CBN, cannabinol]	µg/mL	2.76
C=C(C)[C@@H]1CCC(C)=C[C@H]1c1c(O)cc(CCC)cc1O [CBDV, cannabidivarin]	µg/mL	0.152
CCCc1cc(O)c2c(c1)OC(C)(C)[C@@H]1CCC(C)=C[C@@H]21 [THCV, delta-9-tetrahydrocannabivarin]	µg/mL	3.63
CCCCCc1cc(O)c2c(c1)OC1(C)CCC3C1C2C3(C)C (stereo not shown) [CBL, cannabicyclol]	µg/mL	0.534
C=C(C)[C@@H]1CCC(C)=C[C@H]1c1c(O)cc(CCCCC)cc1O [CBD, cannabidiol, reference compound]	µg/mL	27.73
C=C(C)[C@@H]1CCC(C)=C[C@H]1c1c(O)cc(CCCCC)c(C(=O)O)c1O [CBDA, cannabidiolic acid]	µg/mL	1.75
CCCCCc1cc2c(c(O)c1C(=O)O)[C@@H]1C=C(C)CC[C@H]1C(C)(C)O2 [D9 THCA, delta-9-tetrahydrocannabinolic acid]	µg/mL	0.956

Retrieve Stability of Plant-Derived Cannabinoid Compounds in AB White, 8° C. measured for CCCCCc1cc(O)c(C/C=C(\C)CCC=C(C)C)c(O)c1 [CBG, cannabigerol] and print it.
4.77

Retrieve Stability of Plant-Derived Cannabinoid Compounds in AB White, 8° C. measured for CCCCCc1cc(O)c2c(c1)OC(C)(C)[C@@H]1CCC(C)=C[C@@H]21 [D9 THC, delta-9-tetrahydrocannabinol, reference compound] and print it.
11.97

###

Test: Stability of cannabinoid compounds and Vitamin E components in Beverage 2 (AB Red) by LCMSMS
Format: physicochemical
Conditions: stored at 8° C., 12 days
Consider the following partition of reported Stability of Plant-Derived Cannabinoid Compounds in AB Red into named classes: Low = under 0.5 µg/mL, Medium = from 0.5 µg/mL up to 3 µg/mL, High = 3 µg/mL and over

Which class is correct for the following molecule? CCCCCc1cc(O)c(C/C=C(\C)CCC=C(C)C)c(O)c1 [CBG, cannabigerol]
High

###

Assay: Stability of cannabinoid entourage and Vitamin E components of the powder concentrate by LCMSMS
Type: physicochemical
Conditions: powder stored at 21-25° C.; 2 days
Below is a list of entries, each paired with its recorded Stability of Plant-Derived Cannabinoid Compounds in Powder Concentrate value.
Numbers only; they are read as mg/g powder.

Below are worked cases with known answers.
molecule	measured-result
C=C(C)[C@@H]1CCC(C)=C[C@H]1c1c(O)cc(CCCCC)cc1O [CBD, cannabidiol, reference compound]	5.76
CCCCCc1cc2c(c(O)c1C(=O)O)[C@@H]1C=C(C)CC[C@H]1C(C)(C)O2 [D9 THCA, delta-9-tetrahydrocannabinolic acid]	0.147

Consider now this further molecule.
Retrieve Stability of Plant-Derived Cannabinoid Compounds in Powder Concentrate measured for CCCCCc1cc(O)c2c(c1)OC(C)(C)[C@@H]1CCC(C)=C[C@@H]21 [D9 THC, delta-9-tetrahydrocannabinol, reference compound] and print it.
2.46
